A collection of compounds and their measured viability
Test: liver-stage malaria parasite growth inhibition, primary screen, cell-based, HepG2, luciferase luminescence, HepG2 viability (AID 624349);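 also: 100% = mean of DMSO negative control wells on the same plate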
Settings: P. berghei liver stage in HepG2, luciferase luminescence, concentration not given here; measured here: HepG2 viability without parasites
outcome measure: viability (%)

[[record]]
compound = "CC(=O)c1ccc2c(c1)N(CCCN1CCC(CCO)CC1)c1ccccc1S2"
outcome_measure = "viability"
readout_number = 79.8

[[record]]
compound = "CC(=O)N[C@@H](CCC(=O)O)C(=O)O"
outcome_measure = "viability"
readout_number = 71.4

[[record]]
compound = "CCN1C(=O)NC(c2ccccc2)C1=O (centres undefined)"
outcome_measure = "viability"
readout_number = 100

[[record]]
compound = "O=C(OOC(=O)c1ccccc1)c1ccccc1"
outcome_measure = "viability"
readout_number = 82.1

[[record]]
compound = "CCCNC(C)C(=O)Nc1c(C)csc1C(=O)OC (centres undefined)"
outcome_measure = "viability"
readout_number = 71.1

[[record]]
compound = "O=c1[nH]c2ccccc2n1CCCN1CCN(C(c2ccccc2)c2ccccc2)CC1"
outcome_measure = "viability"
readout_number = 106

[[record]]
compound = "COc1c(C)c2c(c(O)c1C/C=C(\\C)CCC(=O)OCCN1CCOCC1)C(=O)OC2"
outcome_measure = "viability"
readout_number = 140

[[record]]
compound = "O=C(O)CN(CC(=O)O)Cc1cc2c(-c3ccccc3C(=O)O)c3cc(CN(CC(=O)O)CC(=O)O)c(=O)cc-3oc2cc1O"
outcome_measure = "viability"
readout_number = 73.2

[[record]]
compound = "CCCN(CCC)CCc1cccc2c1CC(=O)N2"
outcome_measure = "viability"
readout_number = 102

[[record]]
compound = "C[C@H](O)C(=O)Nc1c(I)c(C(=O)NC(CO)CO)c(I)c(C(=O)NC(CO)CO)c1I"
outcome_measure = "viability"
readout_number = 105

[[record]]
compound = "CO[C@H]1/C=C/O[C@@]2(C)Oc3c(C)c(O)c4c(O)c(c5c(nc6cc(C)ccn65)c4c3C2=O)NC(=O)/C(C)=C\\C=C\\[C@H](C)[C@H](O)[C@@H](C)C(O)[C@@H](C)[C@H](OC(C)=O)[C@@H]1C (some centres undefined)"
outcome_measure = "viability"
readout_number = 113

[[record]]
compound = "CC(=O)N[C@@H]1[C@@H](O)[C@H](O)[C@@H](CO)O[C@H]1O"
outcome_measure = "viability"
readout_number = 78.3

[[record]]
compound = "CCOc1nc2cccc(C(=O)O)c2n1Cc1ccc(-c2ccccc2-c2nn[nH]n2)cc1"
outcome_measure = "viability"
readout_number = 130

[[record]]
compound = "C[C@@H](O[C@H]1OCCN(Cc2n[nH]c(=O)[nH]2)[C@H]1c1ccc(F)cc1)c1cc(C(F)(F)F)cc(C(F)(F)F)c1"
outcome_measure = "viability"
readout_number = 67.5

[[record]]
compound = "C=C[C@H]1CN2CCC1C[C@@H]2[C@@H](O)c1ccnc2ccc(OC)cc12 (some centres undefined)"
outcome_measure = "viability"
readout_number = 94.6

[[record]]
compound = "C[C@]12CC[C@H]3C(=CCc4cc(O)ccc43)[C@@H]1CCC2=O"
outcome_measure = "viability"
readout_number = 97.4

[[record]]
compound = "COC(=O)C1=C(C)NC(C)=C(C(=O)OCCN2CCN(C(c3ccccc3)c3ccccc3)CC2)C1c1cccc([N+](=O)[O-])c1 (centres undefined)"
outcome_measure = "viability"
readout_number = 100

[[record]]
compound = "CC(C)Nc1cccnc1N1CCN(C(=O)c2cc3cc(NS(C)(=O)=O)ccc3[nH]2)CC1"
outcome_measure = "viability"
readout_number = 102

[[record]]
compound = "C[C@]12CC[C@H]3[C@@H](CCC4=CC(=O)CC[C@@]43C)[C@@H]1CC[C@@H]2C(=O)CO"
outcome_measure = "viability"
readout_number = 96.9

